assay: Toxicity in Mus musculus ICR (mouse); format: organism-based; conditions: in vivo
METRIC NAME: LD50 (mg/kg)

# TEST SMILES, RESULT VALUE
data = [
    ("CC[C@H](C)[C@H]1O[C@]2(C=C[C@@H]1C)C[C@@H]1C[C@@H](C/C=C(\\C)[C@@H](O[C@H]3C[C@H](OC)[C@@H](O[C@H]4O[C@@H](C)[C@@H](OC)[C@@H](OC)[C@@H]4OC)[C@H](C)O3)[C@@H](C)/C=C/C=C3\\CO[C@@H]4[C@H](O)C(C)=C[C@@H](C(=O)O1)[C@]34O)O2", 87.5),
    ("CC[C@H](C)[C@H]1O[C@]2(C=C[C@@H]1C)C[C@@H]1C[C@@H](C/C=C(\\C)[C@@H](O[C@H]3C[C@H](OC)[C@@H](O[C@@H]4C[C@@](C)(OC)[C@@H](O)[C@H](C)O4)[C@H](C)O3)[C@@H](C)/C=C/C=C3\\CO[C@@H]4[C@H](O)C(C)=C[C@@H](C(=O)O1)[C@]34O)O2", 17.5),
]

Data origin, for the record: ChEMBL document CHEMBL3046489
